- subject_of_test: T1, human DLL3 extracellular domain (ECD) with C-terminal 8xHis tag and Avi tag (human, UniProt Q9NYJ7 27-492)
- T1 construct: extracellular domain; Expressed in Expi293, purified by IMAC and SEC; also called huDLL3; not shown: Avi tag
- T1 sequence: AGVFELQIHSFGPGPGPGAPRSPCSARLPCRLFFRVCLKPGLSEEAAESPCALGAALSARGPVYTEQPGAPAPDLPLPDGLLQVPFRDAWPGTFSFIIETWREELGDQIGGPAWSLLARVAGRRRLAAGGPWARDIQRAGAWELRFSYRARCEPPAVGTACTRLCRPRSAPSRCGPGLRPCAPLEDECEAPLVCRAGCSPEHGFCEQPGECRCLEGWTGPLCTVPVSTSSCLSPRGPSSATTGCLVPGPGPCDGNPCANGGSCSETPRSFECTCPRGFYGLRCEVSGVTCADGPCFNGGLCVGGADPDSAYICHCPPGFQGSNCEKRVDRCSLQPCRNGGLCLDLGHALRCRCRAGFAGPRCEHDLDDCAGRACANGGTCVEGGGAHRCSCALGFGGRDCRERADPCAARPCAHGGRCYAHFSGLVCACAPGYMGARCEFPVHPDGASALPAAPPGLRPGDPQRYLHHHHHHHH
- procedure_details: SPR (Biacore), 37 C; IgG captured on chip, human DLL3 ECD in solution; 1:1 Langmuir fit
property_measured: pKd
Would you please state pKd, meaning minus log10 of the concentration in mol/L, as a bare number?

For reference, reported pKd for anti-DLL3 antibody 9D3 (IgG) (antibody, V domains shown, Full-length monoclonal antibody (IgG)) VH: QVQLQESGPGLVKPSETLSLTCTVSDDSISNYYWSWIRQPPGKGLEWIGYIFYSGTTNHNPSLKSRLTISLDKAKNQFSLRLSSVTAADTAVYYCARVFNWGFAFDIWGQGTMVTVSS VL: EIVLTQSPGTLSLSPGERATLSCRASQRISRTYLAWYQQKPGQAPRLLIYGASSRATGIPDRFTGSGSGTDFTLTISRLEPEDFAVYYCQQYGTSPLTFGGGTKVEIN stands at 7.68

Source: patent US20230287120A1
